Origin of the recorded values: patent US20260242478A1

- study system: T1, PSMA Fab (006 PSMA Fab) (biotinylated (site not given))
- T1 construct: also called Anti-PSMA Fab; anti-PSMA Fab
- assay comment: clonal phage ELISA; biotinylated PSMA Fab on neutravidin plate, blocking buffer alone; anti-M13 HRP detection;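 also: crude clonal phage supernatants added without washing to wells pretreated with blocking buffer with or without PSMA antigen, short incubation, then washed before detecting bound phage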
Where no end group is shown, it is not given here.
result type: Phage binding ELISA signal, Anti-PSMA Fab

# binder, reading
measured = [
    ("LVKWCTPTWMCVGM (cysteine pairing not given here; also: displayed on bacteriophage as fusion to pIII, fusion and linker not given here, Tested as clonal phage supernatant; also called Peptide-180 library clone) [Phage-2690]", 0.837),
    ("MEKWCIPQWMCEQF (cysteine pairing not given here; also: displayed on bacteriophage as fusion to pIII, fusion and linker not given here, Tested as clonal phage supernatant; also called Peptide-180 library clone) [Phage-2692]", 0.834),
    ("VHYWCIPAWMCNKS (cysteine pairing not given here; also: displayed on bacteriophage as fusion to pIII, fusion and linker not given here, Tested as clonal phage supernatant; also called Peptide-180 library clone) [Phage-2687]", 0.841),
    ("GEKWCTPLWMCEWY (cysteine pairing not given here; also: displayed on bacteriophage as fusion to pIII, fusion and linker not given here, Tested as clonal phage supernatant; also called Peptide-180 library clone) [Phage-2694]", 0.832),
]
